# TGT: CCDC56
# TEST: pooled miR-30 sensor sort-seq; sequence = guide strand; note: reference of the scale not given here
# REPORTED CONDITIONS: shRNA
Returns y if the recorded sensor-assay potency score (higher = more potent) is greater than or equal to -1, and n otherwise.

Below are worked cases with known answers.
               seq_string  label
0  TCGAGTAGAAGGTGTAACCATA      n
1  TAAATAGCCAACACCAGGGCCC      y
2  TAGCTCATCTAGGAAACGCTCC      y

stdin: Threshold query (sensor-assay potency score (higher = more potent) >= -1) on TGGGAAATCGAGTAGAAGGTGT
stdout: y

stdin: Please check the record TCGTCTTCTAGCTCATCTAGGA and state if its sensor-assay potency score (higher = more potent) is at or above -1.
stdout: y

stdin: Is sensor-assay potency score (higher = more potent) at least -1? Consider TCATCTAGGAAACGCTCCTGGG
stdout: n

stdin: Confirm if sensor-assay potency score (higher = more potent) reported for the sequence TTGCCAGAGCTCGGGCTCGGGC is -1 or above.
stdout: n

stdin: Hi team, for ACCATAAATAGCCAACACCAGG , is the recorded sensor-assay potency score (higher = more potent) at or above -1?
stdout: n

###

# TGT: LEFTY1
# TEST: pooled miR-30 sensor sort-seq; sequence = guide strand
# REPORTED CONDITIONS: shRNA
Note to self: values exactly at -0.8 are yes. So sensor-assay potency score (higher = more potent) at or above -0.8 is yes, below is no.

               seq_string  label
0  TTACAAAGTCTTTATTATCTGG    yes
1  TCTTTGAGCTGCAGCTGCCGCA     no
2  TTCTCGGCCCACTTCATCCCCT     no
3  TGACCAGCTCCTCCATGTCGGC     no
4  TTAGGTGAGGTAACTTGTCAGA     no
5  TCATAAGCCAGGAAGCCCGGGG    yes

Consider the additional sequence presented here.
stdin: Does the reported sensor-assay potency score (higher = more potent) for TTTGAGCTGCAGCTGCCGCAGC fall at or above the -0.8 mark?
stdout: no

###

# TGT: KCNC1
# TEST: pooled miR-30 sensor sort-seq; sequence = guide strand
# REPORTED CONDITIONS: shRNA
OBSERVATION TYPE: sensor-assay potency score (higher = more potent)
Please state the value as a number alone, without comment.

stdin: Give the measured sensor-assay potency score (higher = more potent) for TAGTAGTTCAGGATGTGCGCGA
stdout: 0.436

stdin: Return the recorded sensor-assay potency score (higher = more potent) value; entry: TACTTAGCAATGACAGGGCTTT
stdout: -0.252

stdin: # return recorded sensor-assay potency score (higher = more potent) for input TTTCTTTGGTAGTTTCTGCTTA
stdout: 0.312

###

# TGT: FXN
# TEST: pooled miR-30 sensor sort-seq; sequence = guide strand
# REPORTED CONDITIONS: shRNA
# thresholds on sensor-assay potency score (higher = more potent) define classes: class 1 = under -0.9, class 2 = from -0.9 up to -0.3, class 3 = -0.3 and over

Solved entries (count: 5):
>>> df
               seq_string    label
0  TCTGCTAGTCTTTCATAGGTGG  class 3
1  TAGGTGGTCTCATCTAGAGAGC  class 1
2  TGTTGATCACATAGGTTCCTAG  class 2
3  AAAGGAGACATCATAGTCCTCA  class 3
4  TTTAGTGAGCTCTGCGGCCAGC  class 1

stdin: Exam item: assign ATAACGCTTAGGTCCACTGGAT to the correct category.
stdout: class 1

stdin: Sort TTAAAAATCAGAACTTGGGGGC into one of the categories.
stdout: class 3

stdin: For TTGCTTGTTTGGCGTCTGCTTG , which sensor-assay potency score (higher = more potent) bin applies?
stdout: class 2

stdin: Which sensor-assay potency score (higher = more potent) band matches TTGACAGTTAAGACACCACTCC ?
stdout: class 2

Data origin: the OligoGym collection
